Each record here notes measured relative viability.
- Tested on: NCI-H322M
- assay-remarks: relative viability (nuclei count vs DMSO), 5 days (fraction); higher = more cells survive
- condition-set: first compound 2 µM
Answer using only a numeral; do not append any unit.

**Q:** Lab note: need relative viability with NCI-H322M for entry Cc1csc(=NC2CCCCC2)n1/N=C/c1ccc(O)c(O)c1O [MIM1] + CS(=O)(=O)N1CCN(Cc2cc3nc(-c4cccc5[nH]ncc45)nc(N4CCOCC4)c3s2)CC1 [Pictilisib] (partner 1 µM) , please look it up.
**A:** 0.511

**Q:** Next record, please: CN1CCN(CCOc2cc(OC3CCOCC3)c3c(Nc4c(Cl)ccc5c4OCO5)ncnc3c2)CC1 [Saracatinib] + O=C(c1cc(Cc2n[nH]c(=O)c3ccccc23)ccc1F)N1CCN(C(=O)C2CC2)CC1 [Olaparib] (partner 8 µM)
**A:** 0.402

**Q:** CN1CCN(CCOc2cc(OC3CCOCC3)c3c(Nc4c(Cl)ccc5c4OCO5)ncnc3c2)CC1 [Saracatinib] + Cc1nc(Nc2ncc(C(=O)Nc3c(C)cccc3Cl)s2)cc(N2CCN(CCO)CC2)n1 [Dasatinib] (partner 0.075 µM) ?
**A:** 0.215

**Q:** Repeat for the following compound: CN1CCN(CCOc2cc(OC3CCOCC3)c3c(Nc4c(Cl)ccc5c4OCO5)ncnc3c2)CC1 [Saracatinib] + N=C(N)NC(=N)NCCc1ccccc1 [Phenformin] (partner 250 µM)
**A:** 0.334

**Q:** And Cc1csc(=NC2CCCCC2)n1/N=C/c1ccc(O)c(O)c1O [MIM1] + COc1cc2c(Oc3ccc(NC(=O)C4(C(=O)Nc5ccc(F)cc5)CC4)cc3F)ccnc2cc1OCCCN1CCOCC1 [Foretinib] (partner 0.25 µM) ?
**A:** 0.867

**Q:** Now consider Cc1csc(=NC2CCCCC2)n1/N=C/c1ccc(O)c(O)c1O [MIM1] + CC(C)C[C@H](NC(=O)[C@H](Cc1ccccc1)NC(=O)c1cnccn1)B(O)O [Bortezomib] (partner 0.002 µM) and answer again.
**A:** 1.35

---

Here, each record is paired with measured relative viability data.
- Tested on: COR-L23
- assay-remarks: relative viability (nuclei count vs DMSO), 5 days (fraction); higher = more cells survive
- condition-set: first compound 0.006325 µM
Write no unit; give the number alone.

CCNC(=O)c1noc(-c2cc(C(C)C)c(O)cc2O)c1-c1ccc(CN2CCOCC2)cc1 [Luminespib] + Nc1ncn([C@H]2C[C@H](O)[C@@H](CO)O2)c(=O)n1 [Decitabine] (partner 2 µM): 0.374
CCNC(=O)c1noc(-c2cc(C(C)C)c(O)cc2O)c1-c1ccc(CN2CCOCC2)cc1 [Luminespib] + CS(=O)(=O)CCNCc1ccc(-c2ccc3ncnc(Nc4ccc(OCc5cccc(F)c5)c(Cl)c4)c3c2)o1 [Lapatinib] (partner 2 µM): 0.945
CCNC(=O)c1noc(-c2cc(C(C)C)c(O)cc2O)c1-c1ccc(CN2CCOCC2)cc1 [Luminespib] + C[C@]1(O)C[C@@H](c2nc(-c3ccc4ccc(-c5ccccc5)nc4c3)c3c(N)nccn32)C1 [Linsitinib] (partner 1 µM): 0.811

**Q:** Observed relative viability on COR-L23 for CCNC(=O)c1noc(-c2cc(C(C)C)c(O)cc2O)c1-c1ccc(CN2CCOCC2)cc1 [Luminespib] + O=C(c1cc(Cc2n[nH]c(=O)c3ccccc23)ccc1F)N1CCN(C(=O)C2CC2)CC1 [Olaparib] (partner 8 µM) , please.
**A:** 0.344
